System: OVCAR-4 ovarian
Assay: NCI tumour cell line growth inhibition, 48 h
measured-metric: TGI

[[record]]
compound = "Cc1sc2c(c1C)/C(=N\\O)c1cccn1-2"
result = "> 100 µM"

[[record]]
compound = "COc1cc(OC)c2c3c(OC)cc(OC)c4c(=O)c(O)c(C[C@@H](C)O)c(c5c(C[C@@H](C)O)c(O)c(=O)c1c25)c43"
result = "> 100 µM"

[[record]]
compound = "C=C1C(O)C[C@H](OC(C)=O)[C@]2(C)C1C(OC(C)=O)[C@]1(C(C)(C)O)CC(O)C(C)=C1[C@@H](OC(=O)c1ccccc1)C2OC(C)=O (some centres undefined)"
result = "> 10 µM"

[[record]]
compound = "O=C1N2Cc3c4ccc5c3CN3C(=O)N6Cc7c(ccc(c7CN1C6(c1ccccc1)C23c1ccccc1)OCCOCCNCCOCCO4)OCCOCCNCCOCCO5 (centres undefined)"
result = "> 100 µM"


----------
System: MOLT-4 leukemia
Assay: NCI tumour cell line growth inhibition, 48 h
I would appreciate it if you labelled entries criterion met when TGI is 40 µM or higher, otherwise criterion not met.

[[record]]
compound = "COc1ccccc1NC(=O)CC(=O)N1N=C(N2c3ccccc3Sc3ccccc32)CC1c1ccccc1 (stereo unspecified)"
class_assignment = "criterion met"

[[record]]
compound = "COC(=O)c1c(O)ccc2[nH]c3c(O)c4ccccc4cc3c12"
class_assignment = "criterion met"

[[record]]
compound = "O=C(O)[C@H](NS(=O)(=O)c1ccc(F)cc1)c1ccccc1"
class_assignment = "criterion met"

[[record]]
compound = "CC(C)=CCc1[nH]c2ccccc2c1C1=C(O)C(=O)C(c2c(CC=C(C)C)[nH]c3ccccc23)=C(O)C1=O"
class_assignment = "criterion not met"

[[record]]
compound = "CCC(C)Nc1ccc(N)cc1 (stereo unspecified)"
class_assignment = "criterion not met"

[[record]]
compound = "C=CCN(CCNS(=O)(=O)c1ccc(C)cc1)S(=O)(=O)c1ccc(C)cc1"
class_assignment = "criterion met"

[[record]]
compound = "CCOC(=O)C(Cc1ccc(OC(=O)OC(C)(C)C)cc1)NC(=O)OC(C)(C)C (stereo unspecified)"
class_assignment = "criterion met"

[[record]]
compound = "Cc1cc(S(=O)(=O)Nc2nc3ccccc3nc2-c2ccc(Cl)cc2)c(S)cc1Cl"
class_assignment = "criterion met"

[[record]]
compound = "Nc1ccc(C(=O)N/C(=C\\c2cccc([N+](=O)[O-])c2)c2nc3[nH]c(=S)[nH]c(=O)c3[nH]2)cc1"
class_assignment = "criterion met"

[[record]]
compound = "COC(=O)c1ccc(CN2C(=O)C(Cl)=C(Nc3cccc(Cl)c3C)C2=O)cc1"
class_assignment = "criterion met"

[[record]]
compound = "CCOC(=O)NC(OC)(C(F)(F)F)C(F)(F)F"
class_assignment = "criterion met"

[[record]]
compound = "CN(C)c1ccc2oc(=O)c3ccccc3c2c1"
class_assignment = "criterion met"

[[record]]
compound = "COC(=O)N[C@H](C(=O)O)C(C)O[Si](C)(C)C(C)(C)C (stereo partly specified)"
class_assignment = "criterion met"

[[record]]
compound = "Cc1c(N=Nc2ccccc2)c(C)n(C2OC(CO)C(O)C(O)C2O)c(=S)c1C#N (stereo unspecified)"
class_assignment = "criterion met"

[[record]]
compound = "CC1(C)CCC(C)(C)C1C(=O)NC(O)C(=O)O (stereo unspecified)"
class_assignment = "criterion met"

[[record]]
compound = "Cc1cc(S(=O)(=O)Nc2nnc3cnc4ccccc4n23)c(S)cc1Cl"
class_assignment = "criterion met"

[[record]]
compound = "O=C1CC(c2ccccc2)=Nc2ccccc2N1"
class_assignment = "criterion met"

[[record]]
compound = "CC(N)(Cc1c[nH]c2cccc(F)c12)C(=O)O (stereo unspecified)"
class_assignment = "criterion met"

[[record]]
compound = "C[N+](C)(C)CC(=O)N/N=C(/C(=O)Nc1ccc(Br)cc1)C1C(=O)NC(=O)NC1=O"
class_assignment = "criterion met"

[[record]]
compound = "O=S(=O)(NNc1ccccc1)c1ccccc1"
class_assignment = "criterion met"

[[record]]
compound = "NC(CSSCC(N)=NCC12CC3CC(CC(C3)C1)C2)=NCC12CC3CC(CC(C3)C1)C2"
class_assignment = "criterion not met"

[[record]]
compound = "S=c1[nH]n2c(CCCCCCCCc3nnc4sc(=S)[nH]n34)nnc2s1"
class_assignment = "criterion met"

[[record]]
compound = "CCOC(=O)C(=O)CC1=Nc2ccccc2SC(c2cccc(C)c2)C1 (stereo unspecified)"
class_assignment = "criterion met"

[[record]]
compound = "c1ccc(C2OC3(CCC[C@H]4C[C@H]43)O[C@H]2c2ccccc2)cc1 (stereo partly specified)"
class_assignment = "criterion met"

[[record]]
compound = "CC(=O)Oc1ccc2c(c1)CC[C@@H]1C2[C@@H](O[N+](=O)[O-])C[C@@]2(C)C1CC[C@@H]2O[N+](=O)[O-] (stereo partly specified)"
class_assignment = "criterion not met"

[[record]]
compound = "OC(COC(c1ccccc1)(c1ccccc1)c1ccccc1)C(O)CC1SCCS1 (stereo unspecified)"
class_assignment = "criterion met"

[[record]]
compound = "CCOC(=O)c1cc2c(cc1Cl)SC(=Nc1ccccc1)N(S(=O)(=O)c1ccc(Cl)cc1)S2(=O)=O"
class_assignment = "criterion not met"

[[record]]
compound = "COc1ccc2c(c1)[nH]c(=O)c1c3cccc(F)c3cn21"
class_assignment = "criterion not met"

[[record]]
compound = "Nc1[nH]nc2nc3ccccc3nc12"
class_assignment = "criterion met"

[[record]]
compound = "NNC(=S)NCCNC(=S)NN"
class_assignment = "criterion met"

[[record]]
compound = "CCOC(=O)/C(=C/c1ccc(C(=O)OC)cc1)N(CC)CC"
class_assignment = "criterion met"

[[record]]
compound = "O=C1C(c2ccc(Br)cc2)=[N+]([O-])c2ccccc21"
class_assignment = "criterion not met"

[[record]]
compound = "Nc1ccc(C2=CC(c3ccc(Cl)cc3)N3C=CSC3=N2)cc1 (stereo unspecified)"
class_assignment = "criterion met"

[[record]]
compound = "O=C(CC1OC(O)C(Cl)=C1Cl)c1cccnc1 (stereo unspecified)"
class_assignment = "criterion met"

[[record]]
compound = "Cc1cccc2nc3ccccc3c(Nc3ccc(NS(C)(=O)=O)cc3)c12"
class_assignment = "criterion not met"

[[record]]
compound = "NC1=NS(=O)(=O)Nc2nc(-c3ccccc3)[nH]c21"
class_assignment = "criterion met"

[[record]]
compound = "CC(=O)Nc1ccc2[nH]c(C(=O)N3CC(CCl)c4c3cc([N+](=O)[O-])c3ccccc43)cc2c1 (stereo unspecified)"
class_assignment = "criterion met"

